assay: Pharmacokinetic study after intravenous administration in control and hyperuricemic rats (plasma, urine, kidney); details: rat, kidney, intravenous, Kp, creatinine, control rats; individual rats and mean

molecule-smiles | Kp at 4 h
CN1CC(=O)NC1=N | 8.8

###

assay: Pharmacokinetic study after intravenous administration in control and hyperuricemic rats (plasma, urine, kidney); conditions: rat, plasma, intravenous, Plasma concentration, hyperuricemic rats, 0 min after iv metformin 30 mg/kg or cephalexin 10 mg/kg, mean n=3;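 note: Pentobarbital-anesthetized rats with cannulated bladder, jugular plasma, timed urine and saline kidney homogenate assayed by HPLC or LC-MS/MS, Kp as kidney over plasma level at 4 h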

molecule-smiles | unit-string | concentration at 0 min
CN(C)C(=N)N=C(N)N | µM | 798
